IC50 reference
Test target: K-Ras G12V (Homo sapiens, UniProt P01116, G12V)
Sequence (P01116 1-188 isoform P01116-2 G12V): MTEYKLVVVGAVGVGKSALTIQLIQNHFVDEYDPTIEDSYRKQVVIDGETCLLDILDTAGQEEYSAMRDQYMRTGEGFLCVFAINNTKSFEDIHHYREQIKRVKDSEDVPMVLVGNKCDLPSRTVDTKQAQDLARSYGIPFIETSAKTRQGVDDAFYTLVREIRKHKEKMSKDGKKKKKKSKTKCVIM
Test summary: HTRF resonance energy transfer assay, K-Ras G12V / SOS1 interaction
Experimental conditions: HTRF assay of Example 5; read-out: IC50 against K-Ras G12V
Recorded metric: IC50

# Compound, Experimental value
rows = [
    ("CC(C)(O)[C@H]1COc2c(Cl)c(-c3ccc(F)c4sc(N)c(C#N)c34)c(F)c3nc(OC[C@@]45CCCN4C[C@H](F)C5)nc(c23)N1 [Compound 815]", "< 100 nM"),
    ("Cc1cc(N)nc(-c2c(Cl)c3c4c(nc(OC[C@@]56CCCN5C[C@H](F)C6)nc4c2F)N(CC(F)F)CCO3)c1I [Compound 909]", "< 100 nM"),
    ("C[C@H](Oc1nc2c3c(c(Cl)c(-c4ccc(F)c5sc(N)c(C#N)c45)c(F)c3n1)OCCN2C1CCOC1)[C@@H]1CCCN1C (stereo partly drawn) [Compound 924]", "< 100 nM"),
]

* * *

IC50 reference
Test target: UniProtKB P01116
Test summary: HTRF resonance energy transfer assay, K-Ras WT / SOS1 interaction
Experimental conditions: HTRF assay of Example 5; read-out: IC50 against K-Ras WT
Recorded metric: IC50

# Molecule, Test target, Recorded metric, Experimental value
measured = [
    ("COCC(C)N1CCOc2c(Cl)c(-c3ccc(F)c4sc(N)c(C#N)c34)c(F)c3nc(OC[C@@]45CCCN4C[C@H](F)C5)nc1c23 (stereo partly drawn) [Compound 670]", "UniProtKB P01116", "IC50", "< 0.1 µM"),
    ("C#Cc1c(F)ccc2cc(O)cc(-c3nc4c5c(nc(OC[C@@]67CCCN6C[C@H](F)C7)nc5c3F)N(C3CCNC3)CCO4)c12 (stereo partly drawn) [Compound 939]", "UniProtKB P01116", "IC50", "< 0.1 µM"),
    ("CC(O)C1COc2c(Cl)c(-c3ccc(F)c4sc(N)c(C#N)c34)c(F)c3nc(OC[C@@]45CCCN4C[C@H](F)C5)nc(c23)N1CC1CCNC1 (stereo partly drawn) [Compound 632]", "UniProtKB P01116", "IC50", "< 0.1 µM"),
]

* * *

Test target: K-Ras G12D (Homo sapiens, UniProt P01116, G12D)
Sequence (P01116 1-188 isoform P01116-2 G12D): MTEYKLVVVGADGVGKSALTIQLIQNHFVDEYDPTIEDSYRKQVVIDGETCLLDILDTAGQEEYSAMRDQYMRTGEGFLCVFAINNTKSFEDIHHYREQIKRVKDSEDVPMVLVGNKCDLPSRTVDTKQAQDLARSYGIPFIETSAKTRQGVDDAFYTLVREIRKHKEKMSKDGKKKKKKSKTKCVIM
Test summary: HTRF resonance energy transfer assay, K-Ras G12D / SOS1 interaction
Experimental conditions: HTRF assay of Example 5; read-out: IC50 against K-Ras G12D
pIC50: −log10 of the molar value.
Recorded metric: pIC50

# Molecule, Test target, Experimental value
measured = [
    ("C[C@H](O)[C@H]1COc2c(Cl)c(-c3ccc(F)c4sc(N)c(C#N)c34)c(F)c3nc(OC[C@@]45CCCN4C[C@H](F)C5)nc(c23)N1", "K-Ras G12D (Homo sapiens, UniProt P01116, G12D)", "> 7.00"),
    ("CC(O)C1COc2c(Cl)c(-c3ccc(F)c4sc(N)c(C#N)c34)c(F)c3nc(OC[C@@]45CCCN4C[C@H](F)C5)nc(c23)N1CC1CCNC1 (stereo partly drawn)", "K-Ras G12D (Homo sapiens, UniProt P01116, G12D)", "> 7.00"),
    ("C[C@H](Oc1nc2c3c(c(Cl)c(-c4ccc(F)c5sc(N)c(C#N)c45)c(F)c3n1)OCCN2C1CCOC1)[C@@H]1CCCN1C (stereo partly drawn)", "K-Ras G12D (Homo sapiens, UniProt P01116, G12D)", "> 7.00"),
]
